Hello, the source for this data is PubChem BioAssay (NCI), in case you need it.

So I've got a bunch of compounds here, and I need their TGI values.
System: HS 578T breast
Experiment: NCI tumour cell line growth inhibition, 48 h
Your answer is read as µM, so omit the unit and give the number.

Q) GET /values?readout=TGI&item= CC1(C)CC[C@]2(C(=O)Nc3ccccc3)CC[C@]3(C)C(=CC[C@@H]4[C@@]5(C)CC[C@H](N)C(C)(C)[C@@H]5CC[C@]43C)[C@H]2C1
A) 35.2

Q) GET /values?readout=TGI&item= COc1ccc(CN2[C@@H](C(=O)NCc3ccc(C(=O)NO)cc3)Cc3c([nH]c4ccccc34)[C@@H]2C)cc1
A) 13

Q) GET /values?readout=TGI&item= COc1ccc(C(=O)COc2ccc(NC(=O)Nc3ccc(Cl)c(C(F)(F)F)c3)cc2)cc1
A) 9.97
